Data origin: ChEMBL document CHEMBL1201862

Tested on: Malme-3M
Experimental Details: NCI tumour cell line growth inhibition, 48 h
Activity calls are given as the source filed them. Rule as the data show it: active = GI50 up to about 1.1 µM and inactive = higher.
Your response should consist of one outcome taken from yes for active, no for inactive

// known answers, use as guide
C=CCC1[C@@H](C(C)(C)C(C(C)=O)C(=O)C(=O)OC)OC(C(C)(C)C)N1C(=O)OC (stereo not given in full); no
CC(O)/C=C/C(CCC(C)CO)C(C)C (stereo not given); no

Dear all, I need the recorded test outcome for COC(=O)C(=O)C(C(=O)C(=O)Nc1ccc(C)c(C)c1)c1nc2ccc([N+](=O)[O-])cc2nc1O (stereo not given) , thank you. no

Dear all, I need the recorded test outcome for `Nn1c(Sc2nc3ccccc3c(=O)n2N)nc2ccccc2c1=O` , thank you. no

---

System: RPMI-8226
Experimental Details: NCI tumour cell line growth inhibition, 48 h
Active and inactive are the calls of the source. Cut-off read from the data, not from the text of the source: active = GI50 up to about 1.1 µM and inactive = higher.
Your response should consist of one outcome taken from t for active, f for inactive

// known answers, use as guide
Cc1cc(C)c(N[S+]([O-])c2cccc(C(F)(F)F)c2)c(C)c1 (stereo not given); f
Clc1ccc(C(c2ccc(Cl)cc2)N2CCNCC2)cc1; f
CN1CCN(c2cc3c(cc2F)c(=O)c(C(=O)O)cn3C2CC2)CC1CC#N (stereo not given); f
Cn1c(=O)c2nc(-c3ccc(Cl)cc3)oc2n(C)c1=O; f

Consider now this further molecule.
Dear all, I need the recorded test outcome for `CC1=C(Br)C(=O)c2c(O)ccc(O)c2C1=O` , thank you. t

---

System: UACC-257
Experimental Details: NCI tumour cell line growth inhibition, 48 h
Active and inactive are the calls of the source. Rule as the data show it: active = GI50 up to about 1.1 µM and inactive = higher.
Your response should consist of one outcome taken from active, inactive

Oc1ccc(/C=N/N=c2\[nH][nH]/c(=N\N=C\c3ccc(O)cc3O)c3ccccc23)c(O)c1; active
COc1ccc(Cc2nc3cc(Cl)ccc3o2)cc1; inactive
C[N+]1(C)C2Cc3ccccc3C1Cc1ccccc12; inactive
c1ccc2c(c1)N=C(c1ccc3ccccc3c1)CC(c1cccc3ccccc13)S2 (stereo unspecified); inactive
CCCCC#C[I+]c1ccccc1; inactive

Dear all, I need the recorded test outcome for `COP(=O)(Cc1ccccc1)Cc1ccccc1` , thank you. inactive

Dear all, I need the recorded test outcome for `C/C(=C1/N=C(c2ccccc2)OC1=O)c1ccccc1` , thank you. inactive

---

System: MDA-N
Experimental Details: NCI tumour cell line growth inhibition, 48 h
Activity calls are given as the source filed them. Cut-off read from the data, not from the text of the source: active = GI50 up to about 1.1 µM and inactive = higher.
Your response should consist of one outcome taken from 1 (active), 0 (inactive)

Oc1ccc2ccccc2c1/N=N/c1cc(Cl)ccc1Cl; 0

Dear all, I need the recorded test outcome for `Oc1cc(-c2cccc(Br)c2)nc2cc3c(cc12)OCO3` , thank you. 1

Dear all, I need the recorded test outcome for CC1CC2=C(C1)C(C1(C)C(=O)CC3C(C1=O)C3(C)C)C(C)C2=O (stereo not given) , thank you. 0

Dear all, I need the recorded test outcome for `O=P(O)(O)CN1CCNCCN(CP(=O)(O)O)CCN(CP(=O)(O)O)CCNCC1` , thank you. 0

Dear all, I need the recorded test outcome for `CC(=O)N1C(=O)c2cc3ccccc3cc21` , thank you. 0

Dear all, I need the recorded test outcome for `Brc1ccc(/N=N/N2CCCCC2)cc1` , thank you. 0

Dear all, I need the recorded test outcome for O=S(=O)(NC1OCCCC1I)c1ccccc1 (stereo not given) , thank you. 0

Dear all, I need the recorded test outcome for `CCCCCCCC(=O)OC[n+]1cccc(-c2c(COC(=O)NC(C)C)c(COC(=O)NC(C)C)c3n2CCC3)c1` , thank you. 0

Dear all, I need the recorded test outcome for O=C(O)C1NCCc2c1[nH]c1ccccc21 (stereo not given) , thank you. 0

Dear all, I need the recorded test outcome for `CC1(C)S[C@@H]2[C@H](NC(=O)C3(N)CCCCC3)C(=O)N2[C@H]1C(=O)O` , thank you. 0

Dear all, I need the recorded test outcome for CC(C)(C)OC(=O)NC(Cc1ccc([N+](=O)[O-])cc1)C(=O)NC(CCCCNC(=O)OCc1ccccc1)C(=O)ON1C(=O)CCC1=O (stereo not given) , thank you. 0
